# experiment_description: RPL19A-GFP modulators, yeast TOR pathway, confirmation, cell-based, S. cerevisiae, flow cytometry, cherry picks, mother/daughter gates (AID 2270)
# condition_set: S. cerevisiae RPL19A-GFP strain, 3 h, measured here: mother cell gate, at 10 µM, stronger effect = lower value, 100 = same GFP as DMSO wells
parameter: GFP response vs DMSO (%)

INSERT INTO results (molecule, measured) VALUES
  ('CCN1/C(=C/c2ccc3cc(C)ccc3[n+]2CC)Sc2ccc3sccc3c21', 92.3),
  ('Cc1ccc(NC(=O)CC2SC(=O)N(c3ccccc3)C2=O)cc1 (stereo not drawn)', 94.5),
  ('Cc1cccc(NC(=O)CCCN2C(=O)c3cccc4cccc(c34)C2=O)c1', 100);

----------
Overview of reported GFP response vs DMSO across a group of compounds:
# experiment_description: RPL19A-GFP modulators, yeast TOR pathway, confirmation, cell-based, S. cerevisiae, flow cytometry, cherry picks, mother/daughter gates (AID 2270)
# condition_set: S. cerevisiae RPL19A-GFP strain, 3 h, at 10 µM, stronger effect = lower value, 100 = same GFP as DMSO wells
parameter: GFP response vs DMSO (%)

INSERT INTO results (compound, units_text, measured) VALUES
  ('Cc1ccc(NC(=O)ON=C2CCCC2)cc1', '%', 101),
  ('Cc1cc(=O)oc2cc(OC(C)C(=O)NC3CCCC3)ccc12 (centres undefined)', '%', 102),
  ('COc1ccc(/C=C/C(=O)NC(=S)NNC(=O)c2cnccn2)cc1', '%', 105),
  ('COC(=O)c1cc(N2C(=O)C3C(C2=O)C2(C)C=CC3(C)O2)ccc1Cl (centres undefined)', '%', 101);

----------
# experiment_description: RPL19A-GFP modulators, yeast TOR pathway, confirmation, cell-based, S. cerevisiae, flow cytometry, cherry picks, mother/daughter gates (AID 2270)
# condition_set: S. cerevisiae RPL19A-GFP strain, 3 h, measured here: daughter cell gate, at 10 µM, stronger effect = lower value, 100 = same GFP as DMSO wells
parameter: GFP response vs DMSO (%)

INSERT INTO results (compound, measured) VALUES
  ('CCOC(=O)C1=C(Cc2ccc(F)cc2)C(=O)c2ccccc2C1=O', 99.6),
  ('CCOc1ccc(CNC(=O)CCC(=O)N2Cc3cccc(OC)c3Oc3ncccc32)cc1', 98.6),
  ('CSc1nc(N2CCN(c3ccccc3Cl)CC2)c2ccccc2n1', 96.7),
  ('O=C1CC(SCc2nc3ccccc3[nH]2)C(=O)N1c1ccc(F)cc1 (stereo unspecified)', 101),
  ('COc1ccc(N2CCN(C(=O)CCc3nnc4ccc(N5CCCC5)nn34)CC2)cc1', 99.2),
  ('Cc1cc(C)nc(/N=C(\N)N2CCCCCC2)n1', 100),
  ('O=[N+]([O-])c1cc(C(F)(F)F)ccc1Sc1ccccn1', 101),
  ('COc1cccc(C2CC(c3c(-c4ccccc4)c4cc(Cl)ccc4[nH]c3=O)=NN2S(C)(=O)=O)c1OC (stereo unspecified)', 96.5),
  ('CCOC(=O)Cc1csc(NC(=O)c2sc3nc4cc(C)ccc4cc3c2N)n1', 100),
  ('CCCCC(=O)NNC(=S)NC(=O)c1ccc(C)cc1', 111),
  ('COc1ccccc1N1CCN(C2CCCN(Cc3cc(F)cc(F)c3)C2)CC1 (stereo unspecified)', 97.3),
  ('CCCCC1OC23CCCCC2C(C#N)(C(=N)O3)C1(C#N)C#N (stereo unspecified)', 100),
  ('Cc1cccc(NC(=O)CCCN2C(=O)c3cccc4cccc(c34)C2=O)c1', 96.9),
  ('CCOC(=O)C1=C(Cc2ccc(Cl)cc2)C(=O)c2ccccc2C1=O', 98.5),
  ('COc1cc(/C=C2\N=C(c3ccccc3)OC2=O)ccc1OCc1c(C)no[n+]1[O-]', 101),
  ('O=c1[nH]c(-c2ccccn2)nc(C(F)(F)F)c1Br', 102);

----------
# experiment_description: modulators of CIT2-GFP expression in yeast, confirmation, S. cerevisiae, GFP fusion, cherry picks, mother/daughter gates (AID 2274)
# condition_set: S. cerevisiae CIT2-GFP strain, flow cytometry, 3 h; at 10 µM; stronger effect = higher value
Overview of reported GFP response, % of DMSO across a group of molecules:
parameter: GFP response, % of DMSO (%)

INSERT INTO assay_data (molecule, measured) VALUES
  ('CNc1nc(-c2ccccc2)cc(C(F)(F)F)c1C#N', 102),
  ('Cc1ccc(-n2nnnc2C(Cl)(Cl)c2nnnn2-c2ccc(C)cc2)cc1', 105),
  ('COc1cc(/C=C2\N=C(c3ccccc3)OC2=O)ccc1OCc1c(C)no[n+]1[O-]', 99.3),
  ('COc1ccc(-c2noc(CCCC(=O)NCCc3ccccc3)n2)cc1OC', 101),
  ('CCc1ccc(C2CC(c3ccco3)=NN2S(C)(=O)=O)cc1 (stereo not given)', 188);

----------
Overview of reported GFP response relative to DMSO across a group of compounds:
# experiment_description: LAP4-GFP expression modulators in yeast, confirmation, cell-based, cherry picks, flow cytometry, mother/daughter gates (AID 2271);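 also: ratio of sample to DMSO plate mean so 100% equals DMSO level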
# condition_set: S. cerevisiae LAP4-GFP strain, 3 h, measured here: daughter cell gate response, at 10 µM, stronger effect = higher value, 100 means same as DMSO control
parameter: GFP response relative to DMSO (%)

INSERT INTO results (compound, measured) VALUES
  ('COc1cc(/C=C/C(=O)c2c(O)ccc3c(C)cc(=O)oc23)ccc1O', 120),
  ('O=[N+]([O-])/C=C/c1c(OCc2ccccc2)ccc2ccccc12', 106),
  ('NC1=NC(=O)C(CC(=O)c2ccc(Cl)cc2)S1 (stereo not drawn)', 99.3),
  ('Cc1cccc(CS(=O)(=O)c2ncc(Cl)c(C(=O)NCc3ccccc3)n2)c1', 108),
  ('COc1ccc(C(=O)/C=C2/C(=O)Nc3ccccc32)cc1OC', 96.5),
  ('O=C(CSc1nc2ccsc2c(=O)n1CC1CCC(C(=O)O)CC1)c1ccc(F)cc1 (stereo not drawn)', 89.5),
  ('COc1ccc2c(c1)c(C(C)=O)c(C)n2-c1ccccc1OC', 99),
  ('Cc1c(NC2=C(Cl)C(=O)N(c3ccccc3Cl)C2=O)c(=O)n(-c2ccccc2)n1C', 96.6),
  ('O=C1ON=C(c2ccccc2)/C1=C\c1ccco1', 143),
  ('O=C(CSc1nnc(-c2ccccn2)n1Cc1ccccc1)N1CCOCC1', 107),
  ('COc1cccc(-c2nnc(NC(=O)c3ccc(S(=O)(=O)N4CCOCC4)cc3)o2)c1', 99),
  ('CCc1ccc2c(c1)C1(NN=C(c3ccccc3)S1)C(=O)N2 (stereo not drawn)', 125),
  ('Cc1nc2c(-c3ccc(F)cc3)cnn2c(N)c1-c1ccccc1', 97.5);

----------
# experiment_description: AGP1-GFP expression modulators, hit retest, confirmation, cell-based, flow cytometry, S. cerevisiae, cherry picks (AID 2273);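 also: median GFP channel fluorescence over the whole cell population gate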
# condition_set: S. cerevisiae AGP1-GFP strain, 3 h, at 10 µM
Overview of reported GFP response, % of DMSO across a group of compounds:
parameter: GFP response, % of DMSO (%)

INSERT INTO measurements (compound, measured) VALUES
  ('O=C(O)c1ccccc1C(=O)N1CCN(c2ccccc2)CC1', 101),
  ('COc1cc(/C=C2\C(=O)N(CCC#N)N=C2C)c(Br)cc1OC(C)C', 100),
  ('O=S(=O)(c1ccc(Oc2ccccc2)cc1)N1CCOCC1', 94.1),
  ('COc1cc(C(=O)ON=C2C3CC4CC(C3)CC2C4)cc(OC)c1OC', 61.1),
  ('CC(C)c1nc2ccccn2c1NC1CCCCC1', 102),
  ('O=C(Nc1c2ccccc2nc2ccccc12)C(Cl)(Cl)Cl', 87.8),
  ('COc1ccc(Cl)cc1C(Nc1cccnc1)c1ccc2cccnc2c1O (stereo not given)', 97.1),
  ('CC(=O)c1sc2nc(C)c3c(c2c1N)CCCC3', 98.2),
  ('O=C(Oc1c(Cl)cc(Cl)c2cccnc12)c1cccc([N+](=O)[O-])c1', 101),
  ('COc1ccc([N+](=O)[O-])c(S(=O)(=O)c2ccc(Cl)cc2)n1', 131),
  ('Cc1ccc(N2C(=O)C3C4C=CC(CNC(=S)N5CCN(c6ccccn6)CC5)(O4)C3C2=O)cc1 (stereo not given)', 105),
  ('COc1ccc(-c2nc(NC(=O)c3cc(C(C)(C)C)nn3C)sc2C)cc1', 100),
  ('O=C1C(CSCc2ccccc2)NC(=S)N1c1ccccc1 (stereo not given)', 98.1),
  ('CCOC(=O)C(=CNNc1cccc(Cl)c1)C(=O)OCC', 103),
  ('COc1ccc(-c2nnc(NC(=O)c3ccc(S(=O)(=O)N4COCC4(C)C)cc3)o2)cc1', 103);

Values compiled from PubChem BioAssay.
